# ASSAYED_TARGET: Cruzipain (Trypanosoma cruzi)
# Sequence (P25779 whole entry): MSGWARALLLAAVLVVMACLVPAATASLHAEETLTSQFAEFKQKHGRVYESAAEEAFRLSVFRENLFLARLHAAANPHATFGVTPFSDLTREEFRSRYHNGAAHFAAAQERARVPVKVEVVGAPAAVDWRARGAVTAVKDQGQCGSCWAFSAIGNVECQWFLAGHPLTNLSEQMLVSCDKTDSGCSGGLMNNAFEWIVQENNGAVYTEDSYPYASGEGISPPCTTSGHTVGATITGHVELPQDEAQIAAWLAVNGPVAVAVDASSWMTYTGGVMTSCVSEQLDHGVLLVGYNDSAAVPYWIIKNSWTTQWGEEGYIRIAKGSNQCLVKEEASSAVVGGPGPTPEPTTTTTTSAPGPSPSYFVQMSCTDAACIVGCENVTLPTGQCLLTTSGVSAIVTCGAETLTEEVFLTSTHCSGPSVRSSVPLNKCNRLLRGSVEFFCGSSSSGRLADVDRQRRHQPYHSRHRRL
# TEST_DETAILS: Inhibition of Trypanosoma cruzi cruzain preincubated for 5 mins before substrate addition in presence of 0.001% Triton X-100 with 1 mg/ml bovine serum albumin
ENDPOINT: pIC50
The meaning of pIC50 here: minus log10 of the concentration in molar units.

Nc1ccccc1-c1nnc(C(=O)Nc2cccc(N3CCCC3)c2)o1 : 4.00
Nc1ncccc1C(=O)OCC(=O)Nc1cc(Cl)ccc1Cl : 3.94
COc1ccc(OC)c(CNC(=O)c2nnc(-c3ccccc3N)o2)c1 : 4.35

// query // pIC50 lookup, key: Nc1ccccc1-c1nnc(C(=O)Nc2cc(-c3cccs3)n[nH]2)o1
// result 3.99

# credit: ChEMBL document CHEMBL1151964
